assayedSystem: mutant G2019S LRRK2 (Homo sapiens (Human), UniProt Q5S007, G2019S)
Sequence (Q5S007 970-2527 G2019S): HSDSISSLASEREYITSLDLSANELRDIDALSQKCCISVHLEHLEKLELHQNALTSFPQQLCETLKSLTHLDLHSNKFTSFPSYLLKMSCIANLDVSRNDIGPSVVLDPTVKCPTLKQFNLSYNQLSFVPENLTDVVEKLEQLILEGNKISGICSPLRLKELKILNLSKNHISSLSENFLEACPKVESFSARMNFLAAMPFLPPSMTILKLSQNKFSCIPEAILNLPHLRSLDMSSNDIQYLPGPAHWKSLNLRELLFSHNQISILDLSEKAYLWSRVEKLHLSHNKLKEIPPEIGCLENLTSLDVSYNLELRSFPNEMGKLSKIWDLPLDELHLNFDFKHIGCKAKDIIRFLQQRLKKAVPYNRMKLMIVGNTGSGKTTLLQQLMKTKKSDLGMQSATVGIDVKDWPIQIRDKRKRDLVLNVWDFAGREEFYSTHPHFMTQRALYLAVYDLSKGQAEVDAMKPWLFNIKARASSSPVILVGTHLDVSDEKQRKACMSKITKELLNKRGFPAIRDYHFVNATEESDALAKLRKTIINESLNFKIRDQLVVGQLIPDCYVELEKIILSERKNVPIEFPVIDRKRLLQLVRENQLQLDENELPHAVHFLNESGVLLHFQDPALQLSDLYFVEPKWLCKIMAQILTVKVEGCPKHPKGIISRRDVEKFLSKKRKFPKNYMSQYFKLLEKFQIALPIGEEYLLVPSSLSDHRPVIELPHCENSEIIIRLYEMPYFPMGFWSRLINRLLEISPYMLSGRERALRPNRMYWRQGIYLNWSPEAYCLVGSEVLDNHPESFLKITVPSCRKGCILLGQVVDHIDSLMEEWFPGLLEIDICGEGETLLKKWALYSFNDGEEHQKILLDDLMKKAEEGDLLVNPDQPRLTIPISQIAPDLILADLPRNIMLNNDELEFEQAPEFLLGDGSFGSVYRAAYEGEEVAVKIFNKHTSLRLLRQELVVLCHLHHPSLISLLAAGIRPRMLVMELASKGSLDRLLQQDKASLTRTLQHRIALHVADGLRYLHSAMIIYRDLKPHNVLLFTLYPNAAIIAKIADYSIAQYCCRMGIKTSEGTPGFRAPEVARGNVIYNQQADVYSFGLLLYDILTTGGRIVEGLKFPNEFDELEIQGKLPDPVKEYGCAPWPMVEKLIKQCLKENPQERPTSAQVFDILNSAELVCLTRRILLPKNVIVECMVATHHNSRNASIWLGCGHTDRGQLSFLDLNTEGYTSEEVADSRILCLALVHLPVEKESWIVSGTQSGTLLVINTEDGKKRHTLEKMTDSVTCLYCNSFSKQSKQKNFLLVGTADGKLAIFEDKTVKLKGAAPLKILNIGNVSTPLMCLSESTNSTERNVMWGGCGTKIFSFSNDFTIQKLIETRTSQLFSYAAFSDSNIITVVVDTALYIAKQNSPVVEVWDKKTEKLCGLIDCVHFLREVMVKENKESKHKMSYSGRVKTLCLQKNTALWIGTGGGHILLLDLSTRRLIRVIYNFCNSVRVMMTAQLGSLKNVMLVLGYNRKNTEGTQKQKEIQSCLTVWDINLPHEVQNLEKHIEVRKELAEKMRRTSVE
protocolSummary: LRRK2 Lantha Screen kinase assay, mutant enzyme
experimentalSetup: geometric mean of 2-5 determinations unless otherwise indicated (a: >=6 determinations; b: single determination)
Measured pIC50, listed per entry.
Entry type: numeric. Quantity: pIC50, the -log10 of concentration in molar units.

* CN(C)c1ncnc2[nH]cc(-c3cnn(C)c3)c12 | 7.46
* COc1cccc(F)c1-c1c[nH]c2ncnc(N(C)C)c12 | 7.57
* N#Cc1cccc(-c2c[nH]c3ncnc(N4CCCC(N)C4)c23)c1 (stereo not drawn) | 7.68
* Fc1cccc(-c2c[nH]c3ncnc(N4CCOCC4)c23)c1 | 7.68
* COc1ccc(C#N)cc1-c1c[nH]c2ncnc(N3CCOCC3)c12 | 6.92
* N#Cc1cccc(-c2c[nH]c3ncnc(N4CCCC5(CNC(=O)C5)C4)c23)c1 (stereo not drawn) | 6.92
* N#Cc1cccc(-c2c[nH]c3ncnc(N4CCOC(C#N)C4)c23)c1 (stereo not drawn) | 6.47
* Cc1nc(C2CN(c3ncnc4[nH]cc(-c5cccc(C#N)c5F)c34)CCO2)no1 (stereo not drawn) | 7.05

Please find the next compound below.
Noted for C[C@H]1CCCN(c2ncnc3[nH]cc(-c4cccc(C#N)c4)c23)C1 : its pIC50 reads 7.35

----------
Listed compounds paired with reported IC50
assayedSystem: mutant G2019S LRRK2 (Homo sapiens (Human), UniProt Q5S007, G2019S)
protocolSummary: LRRK2 Lantha Screen kinase assay, mutant enzyme
experimentalSetup: geometric mean of 2-5 determinations unless otherwise indicated (a: >=6 determinations; b: single determination)
Quick reminder: number only, in µM, skip the unit.

- NC(=O)c1cccc(-c2c[nH]c3ncnc(N4CCOCC4)c23)n1: 0.0793
- Cc1cc(-c2c[nH]c3ncnc(N4CCOCC4)c23)sn1: 0.073
- COc1cc(F)cc(-c2c[nH]c3ncnc(N4CCC(F)CC4)c23)c1: 0.096
- Cn1cc(-c2c[nH]c3ncnc(N4CCSCC4)c23)cn1: 0.051
- C[C@@H]1CN(c2ncnc3[nH]cc(-c4cccc(C#N)c4)c23)CCO1: 0.069
- N#Cc1cccc(-c2c(C(F)F)[nH]c3ncnc(N4CCOCC4)c23)c1: 1.08
- N#Cc1ccccc1-c1c[nH]c2ncnc(N3CCOCC3)c12: 0.148
- C[C@H]1CCCN(c2ncnc3[nH]cc(-c4ccc5c(c4)CNC5=O)c23)C1: 0.033

Next, consider the following compound.
get_value(item= C[C@H]1CN(c2ncnc3[nH]cc(-c4cccc(F)c4)c23)CCO1 , readout=IC50) returns 0.082

----------
assayedSystem: GST-tagged truncated LRRK2 (Homo sapiens (Human), UniProt Q5S007)
Sequence (Q5S007 970-2527): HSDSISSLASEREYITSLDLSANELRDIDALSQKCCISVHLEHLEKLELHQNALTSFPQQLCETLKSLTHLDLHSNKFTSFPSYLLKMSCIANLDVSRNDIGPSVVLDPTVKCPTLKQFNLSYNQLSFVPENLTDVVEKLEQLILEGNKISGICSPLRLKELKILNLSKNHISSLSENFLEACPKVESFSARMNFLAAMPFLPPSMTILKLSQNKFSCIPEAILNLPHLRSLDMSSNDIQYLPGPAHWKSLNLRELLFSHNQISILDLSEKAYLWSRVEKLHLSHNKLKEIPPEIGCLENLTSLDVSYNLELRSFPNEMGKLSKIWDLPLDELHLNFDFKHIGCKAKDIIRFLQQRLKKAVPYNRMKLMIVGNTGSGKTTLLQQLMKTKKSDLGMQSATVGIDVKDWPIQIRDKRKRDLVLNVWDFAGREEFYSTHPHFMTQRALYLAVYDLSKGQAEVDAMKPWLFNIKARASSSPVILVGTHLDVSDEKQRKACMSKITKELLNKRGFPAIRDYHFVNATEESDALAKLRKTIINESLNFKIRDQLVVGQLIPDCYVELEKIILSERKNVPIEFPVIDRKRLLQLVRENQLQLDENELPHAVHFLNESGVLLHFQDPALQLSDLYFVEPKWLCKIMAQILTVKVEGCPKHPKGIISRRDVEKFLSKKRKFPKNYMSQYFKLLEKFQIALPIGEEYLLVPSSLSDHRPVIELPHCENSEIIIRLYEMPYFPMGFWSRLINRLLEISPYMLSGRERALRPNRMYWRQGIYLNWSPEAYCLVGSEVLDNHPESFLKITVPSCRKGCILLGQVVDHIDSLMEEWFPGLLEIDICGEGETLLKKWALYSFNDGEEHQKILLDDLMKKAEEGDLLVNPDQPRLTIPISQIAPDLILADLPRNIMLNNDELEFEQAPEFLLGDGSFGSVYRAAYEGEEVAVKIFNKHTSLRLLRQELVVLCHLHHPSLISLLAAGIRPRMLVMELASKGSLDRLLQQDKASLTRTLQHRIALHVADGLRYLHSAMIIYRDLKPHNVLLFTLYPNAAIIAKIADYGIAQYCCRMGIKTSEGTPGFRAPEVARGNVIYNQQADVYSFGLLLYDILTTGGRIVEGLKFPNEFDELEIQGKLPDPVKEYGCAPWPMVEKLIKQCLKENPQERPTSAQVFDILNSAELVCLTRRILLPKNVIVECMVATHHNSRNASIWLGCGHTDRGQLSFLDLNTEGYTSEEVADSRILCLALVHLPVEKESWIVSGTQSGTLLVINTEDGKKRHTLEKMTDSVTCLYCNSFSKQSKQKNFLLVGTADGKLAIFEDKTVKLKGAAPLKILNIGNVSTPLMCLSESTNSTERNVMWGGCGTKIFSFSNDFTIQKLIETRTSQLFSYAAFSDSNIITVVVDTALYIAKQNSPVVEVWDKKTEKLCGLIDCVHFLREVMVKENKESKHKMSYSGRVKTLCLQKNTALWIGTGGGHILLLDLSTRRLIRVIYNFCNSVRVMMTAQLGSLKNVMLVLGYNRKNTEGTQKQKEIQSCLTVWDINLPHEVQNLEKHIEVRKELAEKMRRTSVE
protocolSummary: LRRK2 Lantha Screen kinase assay
experimentalSetup: geometric mean of 2-5 determinations unless otherwise indicated (a: >=6 determinations; b: single determination); read-out: LRRK2 WT IC50
Reported pIC50 is given for each of the following compounds.
Scale explanation: pIC50 corresponds to minus log10 of a concentration expressed in moles per litre.

Please review the following examples before continuing.
• C[C@H]1CCCN(c2ncnc3[nH]cc(-c4cccc(CO)c4)c23)C1 = 7.74
• c1cnn2c(-c3c[nH]c4ncnc(N5CCOCC5)c34)cnc2c1 = 8.20
• Cc1nn(C)cc1-c1c[nH]c2ncnc(N3CCOCC3)c12 = 7.22
• C[C@H]1CN(c2ncnc3[nH]cc(-c4cccc(F)c4)c23)CCO1 = 7.42
• O=c1cc(-c2c[nH]c3ncnc(N4CCOCC4)c23)cc[nH]1 = 7.93

Looking up OCC1CCN(c2ncnc3[nH]cc(-c4ccccc4)c23)CC1 , I found its pIC50 recorded as 7.42

Reported pIC50 ( C[C@H]1CN(c2ncnc3[nH]cc(-c4cnn(C)c4)c23)CCO1 ) = 7.24

----------
assayedSystem: GST-tagged truncated LRRK2 (Homo sapiens (Human), UniProt Q5S007)
protocolSummary: LRRK2 Lantha Screen kinase assay
experimentalSetup: geometric mean of 2-5 determinations unless otherwise indicated (a: >=6 determinations; b: single determination); read-out: LRRK2 WT IC50
Criterion: IC50 strictly less than 40 nM. Met: T. Not met: F.

- CCN(CC)c1ncnc2[nH]cc(-c3cccc(C#N)c3)c12: T
- C[C@H]1CCCN(c2ncnc3[nH]cc(-c4ccccc4)c23)C1: F
- Fc1cc(F)cc(-c2c[nH]c3ncnc(N4CCOCC4)c23)c1: F
- NC(=O)c1cccc(-c2c[nH]c3ncnc(N4CCOCC4)c23)n1: T

# check: IC50 < 40 nM for Clc1cncc(-c2c[nH]c3ncnc(N4CCOCC4)c23)c1
T

A record lists C1=C(c2c[nH]c3ncnc(N4CCOCC4)c23)CCCO1 . Is its IC50 below 40 nM?
F

In the record for N#Cc1cccc(-c2c[nH]c3ncnc(N4CCOC(c5nc(C6CC6)no5)C4)c23)c1 (stereo not drawn) , is IC50 less than 40 nM?
T

Given the entry N#Cc1cccc(-c2c[nH]c3ncnc(N4CCCC(C(N)=O)C4)c23)c1 (stereo not drawn) , would its reported IC50 be below 40 nM?
F

----------
assayedSystem: mutant G2019S LRRK2 (Homo sapiens (Human), UniProt Q5S007, G2019S)
protocolSummary: LRRK2 Lantha Screen kinase assay, mutant enzyme
experimentalSetup: geometric mean of 2-5 determinations unless otherwise indicated (a: >=6 determinations; b: single determination)
Mark 1 only for IC50 values smaller than 100 nM; exact matches and larger values are 0.

For orientation, consider the following solved cases.
- N#Cc1cccc(-c2c[nH]c3ncnc(N4CCOCC4)c23)c1F [Example 78]: 1
- Cc1cncc(-c2c[nH]c3ncnc(N4CCO[C@@H](C)C4)c23)c1 [Example 169]: 0
- Cc1noc(C2CN(c3ncnc4[nH]cc(-c5cccc(C#N)c5)c34)CCO2)n1 (stereo not drawn) [Example 110]: 0
- N#Cc1cccc(-c2c[nH]c3ncnc(N4CC5CC(C4)O5)c23)c1 [Example 113]: 0

Criterion: IC50 strictly below 100 nM. Is it met by Cc1noc(C2CN(c3ncnc4[nH]cc(-c5cccc(C#N)c5F)c34)CCO2)n1 (single isomer, unassigned) [Example 213] ?
1

Is IC50 of Cc1[nH]c2ncnc(N3CCOCC3)c2c1-c1cnn(C)c1 [Example 117] strictly below 100 nM?
1

A record lists COc1ccccc1-c1c[nH]c2ncnc(N3CCOCC3)c12 [Example 101] . Is its IC50 below 100 nM?
1

Please check: IC50 for N#Cc1cccc(-c2c[nH]c3ncnc(N4CCOC(c5nc(C6CC6)no5)C4)c23)c1 (stereo not drawn) [Example 142] , strictly under 100 nM or not?
1

In plain terms, does COc1cc(F)cc(-c2c[nH]c3ncnc(N4CCOCC4)c23)c1 [Example 85] come in under 100 nM for IC50?
1

----------
assayedSystem: mutant G2019S LRRK2 (Homo sapiens (Human), UniProt Q5S007, G2019S)
protocolSummary: LRRK2 Lantha Screen kinase assay, mutant enzyme
experimentalSetup: geometric mean of 2-5 determinations unless otherwise indicated (a: >=6 determinations; b: single determination)
assayMetric: IC50 (nM)
Express the result in nM but write the number alone.

Below: 4 compounds and their reported IC50.
• COc1ccc(F)c(Cl)c1-c1c[nH]c2ncnc(N3CCOCC3)c12 = 51
• COc1ccc(C#N)cc1-c1c[nH]c2ncnc(N3CCCC(C)C3)c12 (stereo not shown) = 46
• N#Cc1cccc(-c2c[nH]c3ncnc(N4CCC(F)(CO)CC4)c23)c1 = 106
• N#CC1CCCN(c2ncnc3[nH]cc(-c4cccc(CO)c4)c23)C1 (stereo not shown) = 31

Notebook: Cc1cc(-c2c[nH]c3ncnc(N4CCC[C@H](C)C4)c23)cnc1F , IC50 read as 65

IC50 reading for C[C@H]1CCCN(c2ncnc3[nH]cc(-c4ccc(O)cc4)c23)C1 : 28

Noted for N#Cc1cccc(OCC2CN(c3ncnc4[nH]cc(-c5cccc(C#N)c5)c34)CCO2)c1 (stereo not shown) : its IC50 reads 51

For this compound ( CC1(C)CCCN(c2ncnc3[nH]cc(-c4cccc(C#N)c4)c23)C1 ), measured IC50 is 325

The compound Cc1nc(N2CCOCC2)c2c(-c3cccc(C#N)c3F)c[nH]c2n1 showed IC50 equal to 365

----------
assayedSystem: GST-tagged truncated LRRK2 (Homo sapiens (Human), UniProt Q5S007)
protocolSummary: LRRK2 Lantha Screen kinase assay
Type: biochemical
experimentalSetup: geometric mean of 2-5 determinations unless otherwise indicated (a: >=6 determinations; b: single determination); read-out: LRRK2 WT IC50
Some compounds, each annotated with its measured pIC50.
// pIC50 is dimensionless: -log10 of concentration (M)

// below: answered compounds
• COc1ccc(F)cc1-c1c[nH]c2ncnc(N3CCCC(F)C3)c12 (stereo not shown) = 7.66
• N#Cc1cccc(-c2c[nH]c3ncnc(N4CCCC(O)C4)c23)c1F (stereo not shown) = 8.05
• CN(C)C(=O)CCNc1ncnc2[nH]cc(-c3cccc(C#N)c3)c12 = 7.27

Continue with the next compound.
Briefly, pIC50 measured for N#Cc1ccc(F)c(-c2c[nH]c3ncnc(N4CCOCC4)c23)c1 : 7.31
